Source of measurements: patent US9814696B2

molecular target: KLK7 (Homo sapiens, UniProt P49862); experiment: KLK7 enzyme inhibition assay, fluorogenic substrate Suc-Leu-Leu-Val-Tyr-AMC; type: biochemical; conditions: Table A2; 37° C., 15 min of incubation, pH 8; read-out: IC50 (nM) KLK7
Sequence (P49862 30-253): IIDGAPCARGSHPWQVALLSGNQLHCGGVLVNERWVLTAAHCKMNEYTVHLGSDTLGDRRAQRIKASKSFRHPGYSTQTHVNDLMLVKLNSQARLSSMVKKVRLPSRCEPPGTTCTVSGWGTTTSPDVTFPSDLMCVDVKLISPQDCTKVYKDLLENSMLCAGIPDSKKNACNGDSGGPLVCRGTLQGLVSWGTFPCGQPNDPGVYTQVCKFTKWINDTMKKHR
Measured IC50 values are reported for all entries that follow.
The figure you give is taken to be in nM; do not add the unit.

As a guide, the following entries are already answered.
INSERT INTO measurements (chemical_smiles, target_or_system, value) VALUES
  ('O=C(Oc1cccnc1)c1cc2cc(CCl)ccc2oc1=O', 'KLK7 (Homo sapiens, UniProt P49862)', 5.7),
  ('O=C(Oc1cccc(Cl)c1)c1cc2cc(CBr)ccc2oc1=O', 'KLK7 (Homo sapiens, UniProt P49862)', 63.7),
  ('O=C(Oc1ccccc1)c1cc2cc(CBr)ccc2oc1=O', 'KLK7 (Homo sapiens, UniProt P49862)', 249),
  ('O=C(Oc1cccc(F)c1)c1cc2cc(CBr)ccc2oc1=O', 'KLK7 (Homo sapiens, UniProt P49862)', 198);

Now for the molecule whose IC50 we want.
Inquiry: Please list IC50 recorded for the molecule "O=C(Oc1cccc(Br)c1)c1cc2cc(CBr)ccc2oc1=O"
Reply text: 57

---

Measured inhibition at 10 µM values are reported for all entries that follow.
target: KLK7 (Homo sapiens, UniProt P49862); assay: KLK7 enzyme inhibition assay, fluorogenic substrate Suc-Leu-Leu-Val-Tyr-AMC; format: biochemical; conditions: 10 μM; 37° C., 15 min of incubation, pH 8
The figure you give is taken to be in %; do not add the unit.

As a guide, the following entries are already answered.
INSERT INTO assay_data (chemical_smiles, target_or_system, endpoint_label, value) VALUES
  ('CC(=O)OCc1ccc2oc(=O)c(C(=O)Oc3ccccc3Br)cc2c1', 'KLK7 (Homo sapiens, UniProt P49862)', 'inhibition at 10 µM', 52),
  ('CC(=O)NCc1ccc2oc(=O)c(C(=O)Oc3ccc(Br)cc3)cc2c1', 'KLK7 (Homo sapiens, UniProt P49862)', 'inhibition at 10 µM', 58),
  ('CC(=O)NCc1ccc2oc(=O)c(C(=O)Oc3cccc(Cl)c3)cc2c1', 'KLK7 (Homo sapiens, UniProt P49862)', 'inhibition at 10 µM', 54);

Inquiry: Please list inhibition at 10 µM recorded for the molecule "CC(=O)NCc1ccc2oc(=O)c(C(=O)Oc3cccc(Br)c3)cc2c1"
Reply text: 54

---

Target: KLK5 (Homo sapiens)
Sequence (Q9Y337 23-293): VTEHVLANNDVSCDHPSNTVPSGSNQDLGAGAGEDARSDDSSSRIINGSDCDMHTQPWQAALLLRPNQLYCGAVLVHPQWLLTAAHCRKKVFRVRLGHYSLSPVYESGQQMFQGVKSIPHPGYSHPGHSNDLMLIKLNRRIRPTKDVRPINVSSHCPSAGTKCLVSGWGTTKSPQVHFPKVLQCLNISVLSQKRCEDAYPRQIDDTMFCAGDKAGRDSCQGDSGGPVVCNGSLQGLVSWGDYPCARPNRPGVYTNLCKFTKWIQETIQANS
Assay: KLK5 enzyme inhibition assay, fluorogenic substrate Boc-Val-Pro-Arg-AMC
Assay type: biochemical
Conditions: Table B; among KLK5, KLK7 and KLK14
ENDPOINT_LABEL: selective activity against enzyme: KLK5

INSERT INTO measurements (chemical_smiles, endpoint_label, value) VALUES
  ('CC(=O)OCc1ccc2oc(=O)c(C(=O)Oc3cccc(F)c3)cc2c1', 'selective activity against enzyme: KLK5', 'KLK5'),
  ('CC(=O)OCc1ccc2oc(=O)c(C(=O)Oc3cccc(Br)c3)cc2c1', 'selective activity against enzyme: KLK5', 'KLK5'),
  ('CC(=O)c1cc2cc(C)ccc2oc1=O', 'selective activity against enzyme: KLK5', 'KLK5'),
  ('O=C(Oc1nccc2ccccc12)c1cc2ccccc2oc1=O', 'selective activity against enzyme: KLK5', 'KLK5');
